Ref: patent US20170190671A1

tested on: johnsongrass (Sorghum halepense); assay: Test C postemergence; type: in vivo; conditions: Sorghum halepense, post-emergence, 336 h; Postemergence, 125 g ai/ha, scale 0 to 100; read-out: Plant response rating, Johnsongrass
// pest or weed control at 125 g/ha lookup, one value per entry
Your answer is read as %, so omit the unit and give the number.

Known pest or weed control at 125 g/ha results, listed for orientation:
{"Compound smiles": "Fc1cccc(Oc2ncc(Cl)cn2)c1Oc1ncc(Cl)cn1", "Meas value": 5}
{"Compound smiles": "N#Cc1cccc(Oc2ncc(Cl)cn2)c1Oc1ncc(C(F)(F)F)cn1", "Meas value": 10}

Continue with the next molecule.
Entry "N#Cc1cccc(Oc2ncc(Cl)cn2)c1Oc1ccc(Cl)cc1" needs its pest or weed control at 125 g/ha filled in; supply it.
35

* * *

test system: giant foxtail (Setaria faberii); assay: Test A preemergence; assay type: in vivo; settings: Setaria faberi, pre-emergence, 240 h, 125 g ai/ha, 0 to 100 scale (0 no effect, 100 complete control), read-out: Foxtail, Giant plant response rating
Measured pest or weed control at 125 g/ha accompanies every entry in the list below.
Please respond with the number in % and leave the unit unwritten.

Known results for molecules:
{"Compound smiles": "N#Cc1cccc(Oc2ncc(Cl)cn2)c1Oc1ccc(Cl)cc1", "Measurement target": "giant foxtail (Setaria faberii)", "Measure unit": "%", "Meas value": 90}
{"Compound smiles": "N#Cc1cccc(Oc2ncc(C(F)(F)F)cn2)c1Oc1ncc(Cl)cn1", "Measurement target": "giant foxtail (Setaria faberii)", "Measure unit": "%", "Meas value": 100}
{"Compound smiles": "Fc1cccc(Oc2ncc(Cl)cn2)c1Oc1ncc(Cl)cn1", "Measurement target": "giant foxtail (Setaria faberii)", "Measure unit": "%", "Meas value": 100}
{"Compound smiles": "N#Cc1cccc(Oc2ncc(Cl)cn2)c1Oc1cnc(Cl)cn1", "Measurement target": "giant foxtail (Setaria faberii)", "Measure unit": "%", "Meas value": 100}

For the molecule "Fc1cnc(Oc2c(F)ccc(F)c2Oc2ncc(F)cn2)nc1" , give its reported pest or weed control at 125 g/ha.
100

Return pest or weed control at 125 g/ha (reported value) for this molecule: "Fc1ccc(F)c(Oc2ncc(Cl)cn2)c1Oc1ncc(Cl)cn1"
90

Specify measured pest or weed control at 125 g/ha for "N#Cc1cccc(Oc2ncc(Cl)cn2)c1Oc1ccccc1Cl" .
0

Quote pest or weed control at 125 g/ha reported for "Fc1ccc(F)c(Oc2ncc(Br)cn2)c1Oc1ncc(Br)cn1" please.
90

* * *

tested on: barnyardgrass (Echinochloa crus-galli); assay: Test E preemergence; type: in vivo; conditions: 125 g ai/ha, scale 0 to 100
Assay endpoint: Plant response rating, Barnyardgrass

{"Compound smiles": "N#Cc1cccc(Oc2ncc(Cl)cn2)c1Oc1ncc(C(F)(F)F)cn1", "Plant response rating, Barnyardgrass": 90}

Answer with the recorded Plant response rating, Barnyardgrass of "Fc1cccc(Oc2ncc(Cl)cn2)c1Oc1ncc(C(F)(F)F)cn1" only.
100

Indicate its recorded Plant response rating, Barnyardgrass; the compound in question is "Clc1cnc(Oc2cccc(Br)c2Oc2ncc(Cl)cn2)nc1"
70

Retrieve Plant response rating, Barnyardgrass measured for "Fc1cccc(Oc2ncc(C(F)(F)F)cn2)c1Oc1ncc(Cl)cn1" and print it.
100

* * *

test system: giant foxtail (Setaria faberii); assay: Test A postemergence; type: in vivo; conditions: Setaria faberi, post-emergence, 240 h, 125 g ai/ha, 0 to 100 scale, read-out: Plant response rating, Foxtail, Giant
Assay endpoint: pest or weed control at 125 g/ha (%)
The reply should contain only the number, in %.

Below are worked cases with known answers.
{"Compound": "N#Cc1cccc(Oc2ncc(Br)cn2)c1Oc1ncc(Cl)cn1 [Compound 5]", "Meas value": 90}
{"Compound": "N#Cc1cccc(Oc2ncc(Cl)cn2)c1Oc1ccc(Cl)cn1 [Compound 16]", "Meas value": 80}
{"Compound": "N#Cc1cccc(Oc2ncc(Cl)cn2)c1Oc1cccc(Cl)c1 [Compound 37]", "Meas value": 0}
{"Compound": "FC(F)c1cnc(Oc2c(Br)cccc2Oc2ncc(Cl)cn2)s1 [Compound 10]", "Meas value": 20}
{"Compound": "Fc1cccc(Oc2ncc(Cl)cn2)c1Oc1ncc(C(F)(F)F)cn1 [Compound 43]", "Meas value": 90}
{"Compound": "N#Cc1cccc(Oc2ncc(Br)cn2)c1Oc1ncc(Br)cn1 [Compound 1]", "Meas value": 70}

Moving on to the next compound.
Tell me pest or weed control at 125 g/ha reported for N#Cc1cccc(Oc2ncc(F)cn2)c1Oc1ncc(F)cn1 [Compound 2]
40
